// reported inhibition at 1 µM per item
Molecular target: TYK2 (Mus musculus (Mouse), UniProt Q9R117)
Sequence (Q9R117 whole entry): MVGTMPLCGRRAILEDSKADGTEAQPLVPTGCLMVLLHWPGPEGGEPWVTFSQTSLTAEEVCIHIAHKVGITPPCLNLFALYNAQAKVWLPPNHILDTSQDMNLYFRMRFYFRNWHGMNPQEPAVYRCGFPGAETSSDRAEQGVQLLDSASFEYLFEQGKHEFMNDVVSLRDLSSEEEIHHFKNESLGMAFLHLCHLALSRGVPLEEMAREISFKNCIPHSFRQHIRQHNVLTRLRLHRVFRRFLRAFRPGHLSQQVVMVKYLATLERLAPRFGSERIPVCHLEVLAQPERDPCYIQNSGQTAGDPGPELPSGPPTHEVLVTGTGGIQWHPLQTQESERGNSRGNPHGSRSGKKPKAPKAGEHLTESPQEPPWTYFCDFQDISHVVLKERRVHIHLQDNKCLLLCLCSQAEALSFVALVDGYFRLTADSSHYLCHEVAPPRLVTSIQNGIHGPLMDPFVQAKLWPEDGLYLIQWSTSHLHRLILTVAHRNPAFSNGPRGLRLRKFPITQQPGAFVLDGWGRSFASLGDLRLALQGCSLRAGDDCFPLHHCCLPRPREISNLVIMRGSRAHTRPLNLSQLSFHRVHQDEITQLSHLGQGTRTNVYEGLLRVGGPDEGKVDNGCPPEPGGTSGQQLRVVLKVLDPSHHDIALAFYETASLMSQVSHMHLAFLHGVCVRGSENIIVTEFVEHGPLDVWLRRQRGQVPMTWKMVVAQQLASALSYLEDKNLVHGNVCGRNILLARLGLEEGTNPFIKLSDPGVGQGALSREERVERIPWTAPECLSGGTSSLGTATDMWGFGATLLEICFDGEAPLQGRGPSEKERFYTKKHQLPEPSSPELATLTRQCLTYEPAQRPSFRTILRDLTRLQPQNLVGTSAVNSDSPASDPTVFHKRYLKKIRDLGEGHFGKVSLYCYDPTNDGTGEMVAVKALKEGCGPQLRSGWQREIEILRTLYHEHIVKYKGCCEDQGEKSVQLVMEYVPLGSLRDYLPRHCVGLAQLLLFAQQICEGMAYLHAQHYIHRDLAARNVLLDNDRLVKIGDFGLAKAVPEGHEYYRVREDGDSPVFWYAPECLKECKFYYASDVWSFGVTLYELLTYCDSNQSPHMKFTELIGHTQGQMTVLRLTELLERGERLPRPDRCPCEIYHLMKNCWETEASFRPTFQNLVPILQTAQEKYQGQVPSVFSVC
Assay: Luciferase assay in L929 ISRE cells stimulated with IFN-α
Assay type: cell-based
Details: 1000 nM, IFN-α 100 ng/mL, read-out: Inhibitory activity % (1000 nM)

# Input smiles, inhibition at 1 µM
data = [
    ("CCC(=O)c1cnc(NC(=O)C2CC2)cc1Nc1cccc(-c2cnc(P(C)(C)=O)cn2)c1OC", "80%"),
    ("CCC(=O)c1cnc(NC(=O)C2CC2)cc1Nc1cc(F)cc(-c2ncc(P(C)(C)=O)cn2)c1OC", "46%"),
    ("CCC(=O)c1cnc(NC(=O)C2CC2)cc1Nc1cccc(-c2ccc(P(C)(C)=O)cc2)c1OC", "88%"),
    ("CCC(=O)c1cnc(NC(=O)C2CC2)cc1Nc1cccc(-c2ncc(P(C)(C)=O)cn2)c1OC", "62%"),
]

====

// reported Tmax per item
Assay: Pharmacokinetic evaluation in mice
Format: in vivo
Details: male, mouse, plasma, po; mice, p.o. 10 mg/kg

# Input smiles, Units label, Tmax
rows = [
    ("CCC(=O)c1cnc(NC(=O)C2CC2)cc1Nc1cccc(-c2cc(P(C)(C)=O)n(C)n2)c1OC", "min", 180),
    ("CCC(=O)c1cnc(NC(=O)C2CC2)cc1Nc1cccc(-c2cc(P(=O)(C3CC3)C3CC3)n(C)n2)c1OC", "min", 25.2),
    ("[2H]C([2H])([2H])n1nc(-c2cccc(Nc3cc(NC(=O)C4CC4)ncc3C(=O)CC)c2OC)cc1P(C)(C)=O", "min", 19.8),
    ("[2H]C([2H])([2H])NC(=O)c1nnc(NC(=O)C2CC2)cc1Nc1cccc(-c2cc(P(=O)(C3CC3)C3CC3)n(C)n2)c1OC", "min", 30),
]

====

Molecular target: TYK2 JH2 (Homo sapiens (Human), UniProt P29597)
Sequence (P29597 589-875): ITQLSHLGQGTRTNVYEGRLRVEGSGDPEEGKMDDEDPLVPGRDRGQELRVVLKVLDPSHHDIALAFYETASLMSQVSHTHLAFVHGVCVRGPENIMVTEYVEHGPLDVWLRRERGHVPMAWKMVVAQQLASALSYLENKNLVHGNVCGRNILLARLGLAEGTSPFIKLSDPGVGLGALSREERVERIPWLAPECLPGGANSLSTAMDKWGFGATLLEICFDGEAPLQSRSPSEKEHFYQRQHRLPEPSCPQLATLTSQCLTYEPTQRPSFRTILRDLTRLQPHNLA
Assay: Competitive binding assay (kinase-tagged phage, qPCR), TYK2 JH2
// reported Kd per item

# Compound, Kd
records = [
    ("CCC(=O)c1cnc(NC(=O)C2CC2)cc1Nc1cccc(-c2cc(P(=O)(CC)CC)n(C)n2)c1OC [Compound B24]", "0.03 nM"),
    ("CCC(=O)c1cnc(NC(=O)C2CC2)cc1Nc1cccc(-c2ccc(P(C)(C)=O)cn2)c1OC [Compound B4]", "0.032 nM"),
    ("CCC(=O)c1cnc(NC(=O)C2CC2)cc1Nc1cc(F)cc(-c2cc(P(=O)(CC)CC)n(C)n2)c1OC [Compound B32]", "0.025 nM"),
    ("CCC(=O)c1cnc(NC(=O)C2CC2)cc1Nc1cccc(-c2cnc(P(C)(C)=O)cn2)c1OC [Compound B5]", "0.095 nM"),
    ("[2H]C([2H])([2H])n1nc(-c2cccc(Nc3cc(NC(=O)C4CC4)ncc3C(=O)CC)c2OC)cc1P(=O)(CC)CC [Compound B34]", "0.044 nM"),
    ("CNC(=O)c1nnc(NC(=O)C2CC2)cc1Nc1cccc(-c2cc(P(C)(C)=O)n(C)n2)c1OC [Compound B39]", "0.0064 nM"),
    ("CCC(=O)c1cnc(NC(=O)C2CC2)cc1Nc1nccc(-c2cc(P(=O)(C3CC3)C3CC3)n(C)n2)c1OC [Compound B38]", "0.0079 nM"),
    ("CCC(=O)c1cnc(NC(=O)C2CC2)cc1Nc1cccc(-c2ccc(P(C)(C)=O)cc2)c1OC [Compound B3]", "0.4 nM"),
    ("[2H]C([2H])([2H])n1nc(-c2ccnc(Nc3cc(NC(=O)C4CC4)ncc3C(=O)CC)c2OC)cc1P(=O)(CC)CC [Compound B33]", "0.056 nM"),
    ("[2H]C([2H])([2H])n1nc(-c2ccnc(Nc3cc(NC(=O)C4CC4)ncc3C(=O)CC)c2OC)cc1P(C)(C)=O [Compound B35]", "0.025 nM"),
    ("CCC(=O)c1cnc(NC(=O)C2CC2)cc1Nc1cccc(-c2ncc(P(C)(C)=O)cn2)c1OC [Compound B11]", "0.016 nM"),
    ("CCC(=O)c1cnc(NC(=O)C2CC2)cc1Nc1nccc(-c2cc(P(C)(C)=O)n(C)n2)c1OC [Compound B19]", "0.075 nM"),
    ("CCC(=O)c1cnc(NC(=O)C2CC2)cc1Nc1cccc(-c2cc(P(=O)(C3CC3)C3CC3)n(C)n2)c1OC [Compound B37]", "0.044 nM"),
    ("CCC(=O)c1cnc(NC(=O)C2CC2)cc1Nc1cccc(-c2cc(P(C)(C)=O)n(C)n2)c1OC [Compound B2]", "0.043 nM"),
    ("[2H]C([2H])([2H])n1nc(-c2cccc(Nc3cc(NC(=O)C4CC4)ncc3C(=O)CC)c2OC)cc1P(C)(C)=O [Compound B22]", "0.063 nM"),
    ("CCC(=O)c1cnc(NC(=O)C2CC2)cc1Nc1nccc(-c2cc(P(=O)(CC)CC)n(C)n2)c1OC [Compound B29]", "0.01 nM"),
]
